Target: 3-hydroxy-3-methylglutaryl-coenzyme A reductase (Rattus norvegicus, UniProt P51639)
Assay: Inhibitory activity against partially purified rat liver HMG-CoA reductase in vitro; 0.73-10
RECORDED METRIC: pIC50
Note on units: pIC50 is unitless, being -log10 of a concentration expressed in mol/L.

Prompt line: Provide 3-hydroxy-3-methylglutaryl-coenzyme A reductase (Rattus norvegicus, UniProt P51639) pIC50 reading for O=C(O)C[C@H](O)C[C@H](O)/C=C/c1c2c(nn1-c1ccc(F)cc1)C(c1ccccc1)CCC2 (stereo partly specified) .
Response line: 5.55

---

Molecular target: 3-hydroxy-3-methylglutaryl-coenzyme A reductase (Rattus norvegicus)
Assay: Inhibitory activity against partially purified rat liver HMG-CoA reductase in vitro; 0.038-0.18
RECORDED METRIC: pIC50
Note on units: pIC50 is unitless, being -log10 of a concentration expressed in mol/L.

Prompt line: Provide 3-hydroxy-3-methylglutaryl-coenzyme A reductase (Rattus norvegicus) pIC50 reading for O=C(O)C[C@H](O)C[C@H](O)/C=C/c1c2c(nn1-c1ccc(F)cc1)C(C/C=C/c1ccccc1)CCC2 (stereo partly specified) .
Response line: 7.09

---

Test system: HepG2
Assay: Tested for ability to inhibit incorporation of [14C]acetate into cholesterol in cultured human hepatoma (HEP-G2) cells; 0.15-1.7
Format: functional, cell-based
RECORDED METRIC: IC50 (nM)
Provide the reading as a plain figure in nM.

Prompt line: Provide only the value of recorded IC50 for COc1ccc(CC2CCCc3c2nn(-c2ccc(F)cc2)c3/C=C/[C@@H](O)C[C@@H](O)CC(=O)O)cc1 (stereo partly specified)
Response line: 500

---

Target: 3-hydroxy-3-methylglutaryl-coenzyme A reductase (Rattus norvegicus, UniProt P51639)
Sequence (P51639 whole entry): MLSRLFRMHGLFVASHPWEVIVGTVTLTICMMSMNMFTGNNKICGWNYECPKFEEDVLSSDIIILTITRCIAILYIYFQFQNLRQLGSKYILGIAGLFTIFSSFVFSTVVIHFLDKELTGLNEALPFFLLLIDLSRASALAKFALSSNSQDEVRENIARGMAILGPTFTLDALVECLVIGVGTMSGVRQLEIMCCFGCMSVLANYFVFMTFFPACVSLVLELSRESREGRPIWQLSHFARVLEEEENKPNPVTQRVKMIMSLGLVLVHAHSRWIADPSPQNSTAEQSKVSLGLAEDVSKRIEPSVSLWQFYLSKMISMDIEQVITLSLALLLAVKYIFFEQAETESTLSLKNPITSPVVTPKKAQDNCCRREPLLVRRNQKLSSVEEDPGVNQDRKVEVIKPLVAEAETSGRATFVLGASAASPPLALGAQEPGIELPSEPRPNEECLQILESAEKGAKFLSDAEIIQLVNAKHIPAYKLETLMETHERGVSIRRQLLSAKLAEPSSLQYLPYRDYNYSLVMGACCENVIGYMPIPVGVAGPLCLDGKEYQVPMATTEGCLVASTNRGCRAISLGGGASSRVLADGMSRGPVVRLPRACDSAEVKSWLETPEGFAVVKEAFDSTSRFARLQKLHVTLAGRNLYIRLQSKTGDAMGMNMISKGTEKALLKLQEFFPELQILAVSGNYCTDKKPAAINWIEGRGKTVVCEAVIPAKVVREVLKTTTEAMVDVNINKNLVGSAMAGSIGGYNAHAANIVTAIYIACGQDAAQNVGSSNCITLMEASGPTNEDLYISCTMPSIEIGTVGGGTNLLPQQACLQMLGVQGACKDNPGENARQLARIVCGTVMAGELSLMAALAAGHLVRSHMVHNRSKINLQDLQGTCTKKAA
Assay: Inhibitory activity against partially purified rat liver HMG-CoA reductase in vitro; 1.7-2.6
RECORDED METRIC: IC50 (nM)
Provide the reading as a plain figure in nM.

Prompt line: Provide only the value of recorded IC50 for CC1CCCc2c1nn(-c1ccc(F)cc1)c2/C=C/[C@@H](O)C[C@@H](O)CC(=O)O (stereo partly specified)
Response line: 2100

The measured values listed here are drawn from ChEMBL document CHEMBL1126959.
